Test system: U251 CNS
PROTOCOL: NCI-60 one-dose screen, 48 h (100 = growth as untreated, 0 = no growth, -100 = all killed)
SETUP CONDITIONS: 10 µM unless noted
Description: Growth inhibition of the U251 human tumor cell line is measured as a screen for anti-cancer activity. Cells are grown in 96 well plates and exposed to the test compound for 48 hours. Compounds are tested at a single concentration, which is 10^-5 M for most compounds. The reported endpoint is percent growth (GI% or GIPRCNT), where numbers from 0 - 100% represent growth inhibition, and numbers from -100% - 0 represent cell death. For example, a value of 40 represents 60% growth inhibition. […]
The panel holds about 83,000 compounds, 20% with a hit somewhere; the sample as a whole holds those more often.
The entries below come with measured growth values attached.
Value expressed in %; do not type the unit.

# COMPOUND SMILES, UNIT OF MEASUREMENT, growth
measured = [
    ("O=C(NCc1ccc(Cn2c(=O)sn(-c3ccc(Cl)cc3)c2=O)cc1)OCc1ccc2c(Cl)cc(Cl)c(O)c2n1", "%", 36.3),
    ("COc1cc(C=O)ccc1Oc1ccc([N+](=O)[O-])cc1[N+](=O)[O-]", "%", 93.2),
    ("N#C/C(=C\\c1ccc(Br)cc1)n1nnc2c(F)cccc21", "%", -19.5),
    ("N=C(N)SCc1c2ccccc2c(CSC(=N)N)c2ccccc12", "%", 61.1),
]

Given `CN(C)C(=O)c1cc2cnc(Nc3ccc(-c4csc5c(=S)cc(N6CCOCC6)oc45)cc3)nc2n1C1CCCC1` , state its recorded growth.
7.08

Value source: PubChem BioAssay (NCI)
